Each recorded value in this set is attributed to patent US12303509B2.

System: H1755 cells
Assay: Cellular phospho-ERK inhibition assay in H1755 cells
Format: cell-based
Settings: Homo sapiens, NCI-H1755, 2 hours treatment, read-out: H1755 Cell IC50
pIC50: −log10 of the molar value. Structures can show the parent of a compound that is named as a salt.
measurement type: pIC50

Past entries and their recorded results:
{"molecule": "Cc1c(Nc2c(F)ccc(NS(=O)(=O)N3CC[C@@H](OC(F)F)C3)c2Cl)ccc2ncn(C)c(=O)c12", "measurement type": "pIC50", "value reported": 6.76}
{"molecule": "CO[C@@H]1CCN(S(=O)(=O)Nc2cc(F)c(F)c(Nc3ccc4ncn(C)c(=O)c4c3Cl)c2F)C1", "measurement type": "pIC50", "value reported": 7.27}

I. Cc1c(Nc2cc(Cl)cc(NS(=O)(=O)N3CC[C@@H](F)C3)c2F)ccc2ncn(C)c(=O)c12
II. Cc1c(Nc2c(F)ccc(NS(=O)(=O)N3CC4CC4C3)c2Cl)ccc2ncn(C)c(=O)c12 (stereo not drawn)
### Prompt # min-compare on pIC50 between I and II Please reply using the label of the selected record.
### Response I
(I: 6.44, II: 7.46)

1. Cn1cnc2ccc(Nc3c(F)ccc(NS(=O)(=O)N4CC(F)C4)c3Cl)c(F)c2c1=O [Example 127, trifluoroacetate]
2. COCC1CN(S(=O)(=O)Nc2ccc(F)c(Oc3ccc4ncn(C)c(=O)c4c3Cl)c2Cl)C1
3. Cc1c(Nc2c(F)ccc(NS(=O)(=O)N3CCC3)c2Cl)ccc2ncn(C)c(=O)c12 [Example 124, trifluoroacetate]
4. CO[C@@H]1CCN(S(=O)(=O)Nc2ccc(F)c(Oc3ccc4ncn(C)c(=O)c4c3C)c2Cl)C1
### Prompt Ascending by pIC50, please. Write the labels in rank order as requested.
### Response 3, 4, 2, 1

a. Cn1cnc2ccc(Nc3c(F)c(F)cc(NS(=O)(=O)N4CCCC4)c3Cl)c(F)c2c1=O [Example 40, trifluoroacetate]
b. Cn1cnc2ccc(Nc3c(F)ccc(NS(=O)(=O)N4CCCC4)c3Cl)c(C#N)c2c1=O [Example 50, trifluoroacetate]
### Prompt Please indicate which entry, a or b , has the lower recorded pIC50 value. In your reply, give the label of the chosen option.
### Response a

A. Cn1cnc2ccc(Oc3c(F)ccc(NS(=O)(=O)N4C[C@@H](F)[C@@H](F)C4)c3Cl)c(Cl)c2c1=O
B. Cn1cnc2ccc(Nc3c(F)ccc(NS(=O)(=O)N4CC[C@@H](OC(F)F)C4)c3Cl)c(Cl)c2c1=O
C. COCC1CN(S(=O)(=O)Nc2ccc(F)c(Oc3ccc4ncn(C)c(=O)c4c3F)c2Cl)C1
D. Cc1c(Nc2c(F)ccc(NS(=O)(=O)N3CCCC3)c2F)ccc2ncn(C)c(=O)c12 [Example 113, trifluoroacetate]
### Prompt Arrange these molecules by their pIC50, starting with the largest number. Lab note: record answer as labels in requested order.
### Response C, B, A, D
(C: 7.74, B: 7.46, A: 7.22, D: 6.45)

====

Biological target: BCRP (Homo sapiens (Human), UniProt Q9UNQ0)
Sequence (Q9UNQ0 whole entry): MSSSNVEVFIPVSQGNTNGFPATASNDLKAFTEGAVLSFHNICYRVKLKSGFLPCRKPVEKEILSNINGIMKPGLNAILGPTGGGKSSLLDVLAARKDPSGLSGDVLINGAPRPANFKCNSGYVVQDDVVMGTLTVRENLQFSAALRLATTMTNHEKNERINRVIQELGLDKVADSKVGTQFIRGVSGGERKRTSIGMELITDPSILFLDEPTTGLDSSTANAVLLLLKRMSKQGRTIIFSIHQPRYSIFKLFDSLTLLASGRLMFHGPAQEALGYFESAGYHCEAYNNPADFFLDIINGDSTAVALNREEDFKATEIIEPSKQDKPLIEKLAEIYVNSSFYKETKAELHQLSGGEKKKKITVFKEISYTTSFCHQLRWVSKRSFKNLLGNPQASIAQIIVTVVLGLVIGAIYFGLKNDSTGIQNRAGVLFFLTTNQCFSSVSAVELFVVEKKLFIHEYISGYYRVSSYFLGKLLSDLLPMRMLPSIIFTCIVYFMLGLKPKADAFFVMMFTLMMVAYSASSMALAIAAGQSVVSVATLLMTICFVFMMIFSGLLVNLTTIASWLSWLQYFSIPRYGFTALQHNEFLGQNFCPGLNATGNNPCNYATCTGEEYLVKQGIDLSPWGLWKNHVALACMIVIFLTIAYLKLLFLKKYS
Assay: BCRP MDCKII permeability assay: efflux ratio
Assay type: in vitro ADME
Conditions: dog
measurement type: efflux ratio at 2 h, 1 µM

# example entries with known answers
{"compound": "Cn1cnc2ccc(Oc3c(F)ccc(NS(=O)(=O)N4CC[C@@H](F)C4)c3Cl)c(F)c2c1=O [Example 20]", "efflux ratio at 2 h, 1 µM": 1.8}
{"compound": "CO[C@@H]1CCN(S(=O)(=O)Nc2cc(F)cc(Nc3ccc4ncn(C)c(=O)c4c3C)c2Cl)C1 [Example 152]", "efflux ratio at 2 h, 1 µM": 1.4}

A. CCN(C)S(=O)(=O)Nc1cc(F)c(F)c(Nc2ccc3ncn(C)c(=O)c3c2C)c1Cl [Example 97]
B. Cc1c(Oc2c(F)ccc(NS(=O)(=O)N3CCCC3)c2Cl)ccc2ncn(C)c(=O)c12 [Example 69]
### Prompt Between the entries labeled A and B , whose measured efflux ratio at 2 h, 1 µM is lower? API: response body contains the label of the selected item.
### Response B
(B: 0.9, A: 1.8)

====

Experiment: MDR1 LLC-PK1 and BCRP MDCKII permeability assay: permeability coefficient (Papp)
Assay type: in vitro ADME
Text: Final organic concentration in the assay was 1%.
Where a name gives a salt, the structure may show the parent alone.
measurement type: Papp at 2 h, 1 µM (×10⁻⁶ cm/s)

Below, 8 compounds whose answers are already recorded.
{"compound": "CO[C@@H]1CCN(S(=O)(=O)Nc2cc(F)c(F)c(Nc3ccc4ncn(C)c(=O)c4c3Cl)c2F)C1", "value reported": 30}
{"compound": "CO[C@@H]1CCN(S(=O)(=O)Nc2ccc(F)c(Oc3ccc4ncn(C)c(=O)c4c3F)c2Cl)C1 [Example 48, trifluoroacetate]", "value reported": 29}
{"compound": "COC1CN(S(=O)(=O)Nc2ccc(F)c(Nc3ccc4ncn(C)c(=O)c4c3Cl)c2Cl)C1", "value reported": 37}
{"compound": "[2H]C([2H])([2H])O[C@@H]1CCN(S(=O)(=O)Nc2ccc(F)c(Nc3ccc4ncn(C)c(=O)c4c3Cl)c2Cl)C1 [Example 53, trifluoroacetate]", "value reported": 30}
{"compound": "Cn1cnc2ccc(Nc3c(F)ccc(NS(=O)(=O)N4CC5CC5C4)c3Cl)c(Cl)c2c1=O (stereo not shown)", "value reported": 24}
{"compound": "CO[C@H]1CN(S(=O)(=O)Nc2ccc(F)c(Nc3ccc4ncn(C)c(=O)c4c3C)c2Cl)C[C@@H]1F (relative stereo)", "value reported": 34}
{"compound": "Cn1cnc2ccc(Nc3c(F)ccc(NS(=O)(=O)N4CC(F)C4)c3Cl)c(F)c2c1=O [Example 127, trifluoroacetate]", "value reported": 34}
{"compound": "Cn1cnc2ccc(Oc3c(F)ccc(NS(=O)(=O)N4CCC(F)(F)C4)c3Cl)c(Cl)c2c1=O", "value reported": 29}

P. Cc1c(Nc2c(F)ccc(NS(=O)(=O)N3CC(C#N)C3)c2Cl)ccc2ncn(C)c(=O)c12 [Example 146, trifluoroacetate]
Q. Cn1cnc2ccc(Oc3c(F)ccc(NS(=O)(=O)N4CC[C@@H](OC(F)F)C4)c3Cl)c(F)c2c1=O
R. Cc1c(Nc2c(F)ccc(NS(=O)(=O)N3CC(F)C3)c2Cl)ccc2ncn(C)c(=O)c12
### Prompt Put these in order: smallest Papp at 2 h, 1 µM first, largest last. # the answer lists labels in the order requested
### Response P, Q, R
(P: 17 ×10⁻⁶ cm/s, Q: 25 ×10⁻⁶ cm/s, R: 37 ×10⁻⁶ cm/s)

P. CC[C@@H]1CCN(S(=O)(=O)Nc2ccc(F)c(Nc3ccc4ncn(C)c(=O)c4c3Cl)c2Cl)C1 [Example 106, trifluoroacetate]
Q. Cc1c(Nc2c(F)ccc(NS(=O)(=O)N(C)C)c2Cl)ccc2ncn(C)c(=O)c12
### Prompt Could you determine which record has the numerically smaller Papp at 2 h, 1 µM? Candidates: P and Q Write down the label of the entry you select.
### Response P

1. Cc1c(Nc2c(F)ccc(NS(=O)(=O)N3CC4CC3C4)c2Cl)ccc2ncn(C)c(=O)c12 [Example 87, trifluoroacetate]
2. COC1CN(S(=O)(=O)Nc2ccc(F)c(Nc3ccc4ncn(C)c(=O)c4c3F)c2Cl)C1
### Prompt I'm curious, which of these has a smaller Papp at 2 h, 1 µM number: 1 or 2 ? Give the chosen item's label as your response.
### Response 1

I. Cn1cnc2ccc(Nc3c(F)ccc(NS(=O)(=O)N4CC(OC(F)F)C4)c3Cl)c(Cl)c2c1=O
II. Cn1cnc2ccc(Oc3c(F)ccc(NS(=O)(=O)N4CC(F)C4)c3Cl)c(F)c2c1=O
### Prompt # query: argmin of Papp at 2 h, 1 µM over I and II # answer = label of selected item
### Response I

====

Target: full-length FLAG-tagged B-Raf(V600E) (Homo sapiens (Human), UniProt P15056, V600E)
Sequence (P15056 whole entry V600E): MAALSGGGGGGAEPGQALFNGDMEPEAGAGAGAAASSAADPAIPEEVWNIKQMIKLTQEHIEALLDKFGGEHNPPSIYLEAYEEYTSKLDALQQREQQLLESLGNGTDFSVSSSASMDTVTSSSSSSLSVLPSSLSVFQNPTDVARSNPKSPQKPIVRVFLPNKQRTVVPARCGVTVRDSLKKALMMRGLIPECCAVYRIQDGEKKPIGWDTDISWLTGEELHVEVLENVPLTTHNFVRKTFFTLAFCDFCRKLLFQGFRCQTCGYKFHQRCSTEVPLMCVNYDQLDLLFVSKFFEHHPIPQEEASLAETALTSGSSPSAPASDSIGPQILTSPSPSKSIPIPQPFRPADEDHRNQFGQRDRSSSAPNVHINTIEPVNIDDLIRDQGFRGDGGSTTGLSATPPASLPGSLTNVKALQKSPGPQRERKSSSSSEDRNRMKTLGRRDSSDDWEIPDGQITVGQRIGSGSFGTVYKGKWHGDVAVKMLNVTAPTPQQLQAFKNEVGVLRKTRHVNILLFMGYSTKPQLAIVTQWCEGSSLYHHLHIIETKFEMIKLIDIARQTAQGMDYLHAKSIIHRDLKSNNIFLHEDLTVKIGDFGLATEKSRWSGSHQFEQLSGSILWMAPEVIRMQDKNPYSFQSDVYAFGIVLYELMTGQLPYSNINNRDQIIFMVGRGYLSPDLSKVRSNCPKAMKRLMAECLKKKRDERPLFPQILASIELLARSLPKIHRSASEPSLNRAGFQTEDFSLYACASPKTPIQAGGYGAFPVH
Assay: BRAF V600E enzyme assay (TR-FRET competitive displacement)
Type: binding
Conditions: averaged IC50; TR-FRET tracer displacement, 60 min
pIC50: −log10 of the molar value. Counter-ions that a name gives are not always drawn.
measurement type: pIC50

Consider the worked cases shown below.
{"compound": "CO[C@@H]1CCN(S(=O)(=O)Nc2cc(F)cc(Nc3ccc4ncn(C)c(=O)c4c3C)c2Cl)C1", "pIC50": 7.54}
{"compound": "Cn1cnc2ccc(Nc3c(F)ccc(NS(=O)(=O)N4CC5(CCC5)C4)c3Cl)c(Cl)c2c1=O [Example 158, trifluoroacetate]", "pIC50": 8.10}
{"compound": "CN(C)S(=O)(=O)Nc1ccc(F)c(Nc2ccc3ncn(C)c(=O)c3c2F)c1Cl", "pIC50": 7.17}
{"compound": "Cc1c(Nc2c(F)c(F)cc(NS(=O)(=O)N3CC[C@@H](F)C3)c2Cl)ccc2ncn(C)c(=O)c12", "pIC50": 8.70}

a. CO[C@@H]1CN(S(=O)(=O)Nc2ccc(F)c(Nc3ccc4ncn(C)c(=O)c4c3F)c2Cl)C[C@@H]1F (relative stereo)
b. CCOC1CN(S(=O)(=O)Nc2ccc(F)c(Nc3ccc4ncn(C)c(=O)c4c3C)c2Cl)C1
c. Cc1c(Nc2c(F)ccc(NS(=O)(=O)N3CCC(F)(F)C3)c2Cl)ccc2ncn(C)c(=O)c12
### Prompt Rank by pIC50 (largest to smallest). Present the labels in the sequence the task asks for.
### Response c, a, b
(c: 8.52, a: 8.22, b: 7.48)

1. Cn1cnc2ccc(Nc3c(F)ccc(NS(=O)(=O)N4CC[C@@H](F)C4)c3Cl)c(F)c2c1=O
2. Cc1c(Nc2c(F)ccc(NS(=O)(=O)N3CC4CC4(F)C3)c2Cl)ccc2ncn(C)c(=O)c12 (stereo not shown)
3. Cc1c(Nc2cc(F)cc(NS(=O)(=O)N3CCCC3)c2F)ccc2ncn(C)c(=O)c12
### Prompt Highest pIC50 first, then in falling order down to the smallest. To answer, arrange all of the labels according to the requested order.
### Response 1, 2, 3
(1: 8.30, 2: 8.10, 3: 7.55)
